test-target: Prostaglandin E2 receptor EP4 subtype (Homo sapiens)
Sequence (P35408 whole entry): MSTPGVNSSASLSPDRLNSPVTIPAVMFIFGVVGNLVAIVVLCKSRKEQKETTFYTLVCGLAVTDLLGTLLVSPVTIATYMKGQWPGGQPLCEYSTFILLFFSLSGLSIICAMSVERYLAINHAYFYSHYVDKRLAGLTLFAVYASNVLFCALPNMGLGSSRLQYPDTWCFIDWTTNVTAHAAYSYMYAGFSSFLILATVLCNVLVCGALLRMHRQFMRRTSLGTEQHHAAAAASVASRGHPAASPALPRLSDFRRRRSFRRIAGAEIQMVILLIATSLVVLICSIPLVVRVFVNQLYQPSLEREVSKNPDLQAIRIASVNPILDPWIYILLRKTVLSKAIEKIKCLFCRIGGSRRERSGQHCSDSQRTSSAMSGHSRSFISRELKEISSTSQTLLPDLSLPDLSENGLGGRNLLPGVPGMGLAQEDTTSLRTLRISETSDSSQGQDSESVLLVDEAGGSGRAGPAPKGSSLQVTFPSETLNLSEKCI
assay-name: Inhibition of human EP4 recombinant receptor expressed in CHO cells by cAMP mobilisation assay
Format: functional, cell-based
value-type: Ki (µM)

- Cc1ccc(-n2c(C)ccc2-c2cc(Cl)ccc2OCc2ccc(F)cc2)cc1C(=O)O: 6.31

###

assay-name: Volume of distribution at steady state in rat
Assay type: ADME, organism-based
test-conditions: in vivo, read-out: Vss
value-type: Vd (L/kg)

* Cc1ccc(-c2cc(Br)ccc2OCc2ccc(F)cc2)n1-c1cccc(C(=O)O)c1 | 0.7
